# experimentalTarget: WD repeat-containing protein 5 (Homo sapiens)
pIC50: −log10 of the molar value.
readoutType: pIC50

> print(dat)
                            structurestring  recordedvalue
1  Cc1c(F)ccc(C(=O)Nc2cc(-c3ccc(N)cc3)ccc2N2CCN(C)CC2)c1Cl           6.69
2  Cc1c(F)c([N+](=O)[O-])cc(C(=O)Nc2cc(-c3ccccc3)ccc2N2CCN(C)CC2)c1Cl           6.68
